Target: T1, human ROR1 (full-length, on the cell surface) (human, UniProt Q01973 30-937)
T1 construct: whole, on cells; the tumour cell lines carry their own ROR1; also called Ba/F3-ROR1 cells; Jeko-1
T1 sequence (Q01973 30-937): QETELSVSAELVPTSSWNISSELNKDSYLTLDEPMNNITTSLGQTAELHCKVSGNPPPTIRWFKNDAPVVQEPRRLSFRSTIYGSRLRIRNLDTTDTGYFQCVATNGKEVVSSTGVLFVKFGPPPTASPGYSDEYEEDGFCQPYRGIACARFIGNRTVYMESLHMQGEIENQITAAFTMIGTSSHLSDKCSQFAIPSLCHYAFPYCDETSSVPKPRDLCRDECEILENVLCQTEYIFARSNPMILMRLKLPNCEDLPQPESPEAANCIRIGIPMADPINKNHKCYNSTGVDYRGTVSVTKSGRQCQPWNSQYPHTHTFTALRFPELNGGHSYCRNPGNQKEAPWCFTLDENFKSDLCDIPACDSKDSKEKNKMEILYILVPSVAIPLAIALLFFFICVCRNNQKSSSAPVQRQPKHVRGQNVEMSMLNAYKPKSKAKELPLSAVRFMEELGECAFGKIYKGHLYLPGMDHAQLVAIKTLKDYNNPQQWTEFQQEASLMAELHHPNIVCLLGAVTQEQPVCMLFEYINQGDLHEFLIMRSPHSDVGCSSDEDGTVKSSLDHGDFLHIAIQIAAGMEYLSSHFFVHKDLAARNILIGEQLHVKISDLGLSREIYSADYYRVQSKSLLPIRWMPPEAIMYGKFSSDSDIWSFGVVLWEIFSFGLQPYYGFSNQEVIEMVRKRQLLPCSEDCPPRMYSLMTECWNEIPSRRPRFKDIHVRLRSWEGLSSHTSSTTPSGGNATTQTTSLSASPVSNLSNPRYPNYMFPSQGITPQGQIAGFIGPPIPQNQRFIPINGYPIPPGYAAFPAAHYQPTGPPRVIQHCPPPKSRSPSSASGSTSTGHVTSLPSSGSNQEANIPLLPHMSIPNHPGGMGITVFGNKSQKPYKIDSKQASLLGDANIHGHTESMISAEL
Experiment: flow cytometry, Ba/F3-ROR1 cells
EC50 values, listed per item
Express it in nM; write the number only.

Sample records with EC50:
19F6-Hu35V5 (antibody, human IgG1, kappa, V domains shown, humanized, human IgG1 / kappa) VH: QVQLQESGPGLVKPSQTLSLTCTVSGYSITSDYAWNWIRQFPGKGLEWIGYISYSGSIRYNPSLKSRVTISRDTSKNQFSLKLSSVTAADTAVYYCARGEITYYFDYWGQGTLVTVSS VL: ETTLTQSPAFMSATPGDKVTISCKASTDIDDDMNWYQQKPGKPPKLIISEGNTLRPGIPPRFSSSGYGTDFTFTINNIKSEDAATYYCLQSNDLPLTFGQGTKLEIKR
0.17
19F6-Hu35V8 (antibody, human IgG1, kappa, V domains shown, humanized, human IgG1 / kappa) VH: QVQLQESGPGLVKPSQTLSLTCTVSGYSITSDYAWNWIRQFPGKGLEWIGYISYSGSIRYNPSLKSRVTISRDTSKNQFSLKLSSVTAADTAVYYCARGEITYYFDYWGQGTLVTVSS VL: ETTLTQSPAFMSATPGDKVTISCKASTDIDNDMNWYQQKPGKPPKLIISEGNTLRPGIPPRFSSSGYGTDFTFTINNIQSEDAATYYCLQSNDLPLTFGQGTKLEIKR
0.18
19F6-Hu24 (antibody, human IgG1, kappa, V domains shown, humanized, human IgG1 / kappa) VH: QVQLQESGPGLVKPSETLSLTCTVSGYSITSDYAWNWIRQPPGKGLEWMGYISYSGSIRYNPSLKDRITISRDTSKNQFSLKLSSVTAADTAVYYCARGEITYYFDYWGQGTLVTVSS VL: DIQMTQSPSSLSASVGDRVTITCQTSTDIDDDLNWYQQKPGKPPKLLISEGNTLETGVPSRFSGSGSGTDFTFTISSLQPEDIADYYCLQSNDLPLTFGAGTKLEIKR
0.39

In the following, a different binder is considered.
Value lookup for EC50; key = 19F6-Hu31 (antibody, human IgG1, kappa, V domains shown, humanized, human IgG1 / kappa) VH: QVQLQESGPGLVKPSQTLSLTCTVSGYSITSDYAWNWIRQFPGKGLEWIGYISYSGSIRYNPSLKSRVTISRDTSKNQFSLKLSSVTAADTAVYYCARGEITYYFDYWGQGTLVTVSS VL: DIQMTQSPSSLSASVGDRVTITCITTTDIDDDMNWYQQKPGKAPKLLISEGNTLRPGVPSRFSGSGYGTDFTLTISSLQPEDFATYYCLQSNDLPLTFGQGTKLEIKR
0.3
